// pKi collected for Carbonic anhydrase 4 (Bos taurus)
Friendly reminder that pKi comes from taking -log10 of the concentration in mol/L.

Below are worked cases with known answers.
CCN(C)C(=S)SNCc1ccc(S(N)(=O)=O)cc1 :: 7.39
NS(=O)(=O)c1ccc(CNSC(=S)N2CCOCC2)cc1 :: 7.46
NS(=O)(=O)c1ccc(NSC(=S)N2CCOCC2)c(I)c1 :: 6.77
NS(=O)(=O)c1ccc(NSC(=S)N2CCOCC2)c(F)c1 :: 6.92

# returns recorded pKi (system: Carbonic anhydrase 4 (Bos taurus)) for "NS(=O)(=O)c1cccc(NSC(=S)N2CCOCC2)c1"
# Sequence (Q95323 whole entry): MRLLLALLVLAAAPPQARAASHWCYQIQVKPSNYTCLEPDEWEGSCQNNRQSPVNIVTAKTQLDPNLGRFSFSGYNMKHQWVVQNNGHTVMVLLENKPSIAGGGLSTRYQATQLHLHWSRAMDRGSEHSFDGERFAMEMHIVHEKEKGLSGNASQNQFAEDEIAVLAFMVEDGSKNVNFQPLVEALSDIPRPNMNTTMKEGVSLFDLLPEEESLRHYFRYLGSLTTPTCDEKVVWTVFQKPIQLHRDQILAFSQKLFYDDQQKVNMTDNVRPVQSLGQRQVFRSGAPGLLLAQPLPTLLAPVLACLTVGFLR
6.54

Quick check: pKi on Carbonic anhydrase 4 (Bos taurus), item "NS(=O)(=O)c1ccc(NS(=O)(=O)c2ccc(NSC(=S)N3CCOCC3)cc2)cc1" ?
8.00

Form entry - test system: Carbonic anhydrase 4 (Bos taurus); read-out: pKi; compound: "NS(=O)(=O)c1nnc(NC(=O)CCNSC(=S)N2CCOCC2)s1"
7.68

Query pKi on Carbonic anhydrase 4 (Bos taurus) for "NS(=O)(=O)c1ccc(CCNSC(=S)N2CCOCC2)cc1"
7.62

# query: pKi | item CCN(SC(=S)N1CCOCC1)C1CC(C)S(=O)(=O)c2sc(S(N)(=O)=O)cc21 (stereo not given) | system: Carbonic anhydrase 4 (Bos taurus)
7.66

Quick check: pKi on Carbonic anhydrase 4 (Bos taurus), item "NS(=O)(=O)c1ccc(NSC(=S)N2CCOCC2)cc1" ?
7.00

====

- Tested system: UniProt P00915
Mark each entry true if its Ki sits below 500 nM, and false for all others.

NS(=O)(=O)c1nnc(NS(=O)(=O)c2ccc(NSC(=S)N3CCOCC3)cc2)s1 :: true
NS(=O)(=O)c1nnc(NC(=O)CCNSC(=S)N2CCOCC2)s1 :: true
NS(=O)(=O)c1ccc(NSC(=S)N2CCOCC2)c(I)c1 :: false
CCN(SC(=S)N1CCOCC1)C1CC(C)S(=O)(=O)c2sc(S(N)(=O)=O)cc21 (stereo not given) :: false
NS(=O)(=O)c1ccc(NSC(=S)N2CCOCC2)c(F)c1 :: false

Lab note: Ki threshold 500 nM. Does this compound come in strictly under it? "NS(=O)(=O)c1ccc(CCNSC(=S)N2CCOCC2)cc1"
true

Ki strictly < 500 nM for this compound? "NS(=O)(=O)c1ccc(NSC(=S)N2CCOCC2)c(Br)c1"
false

Quick check: does "Cn1nc(S(N)(=O)=O)s/c1=N/S(=O)(=O)c1ccc(NSC(=S)N2CCOCC2)cc1" have Ki under 500 nM?
true

Input "NS(=O)(=O)c1ccc(CNSC(=S)N2CCOCC2)cc1" ; condition: Ki strictly below 500 nM. Does it hold?
false

====

For Carbonic anhydrase 2 (Homo sapiens), measured pKi is reported for the entries below.
Kindly note that pKi refers to -log10 of the concentration in mol/L and answer with the value alone.

A selection of reference data follows.
Cn1nc(S(N)(=O)=O)s/c1=N/S(=O)(=O)c1ccc(NSC(=S)N2CCOCC2)cc1 :: 9.30
NS(=O)(=O)c1nnc(NC(=O)CCNSC(=S)N2CCOCC2)s1 :: 8.70
NS(=O)(=O)c1ccc(NSC(=S)N2CCOCC2)cc1 :: 7.44
NS(=O)(=O)c1ccc(NS(=O)(=O)c2ccc(NSC(=S)N3CCOCC3)cc2)cc1 :: 8.52

Sample "NS(=O)(=O)c1ccc(NSC(=S)N2CCOCC2)c(F)c1" — what was its pKi?
7.48

====

- Tested system: Carbonic anhydrase 1 (Homo sapiens, UniProt P00915)
- Sequence (P00915 whole entry): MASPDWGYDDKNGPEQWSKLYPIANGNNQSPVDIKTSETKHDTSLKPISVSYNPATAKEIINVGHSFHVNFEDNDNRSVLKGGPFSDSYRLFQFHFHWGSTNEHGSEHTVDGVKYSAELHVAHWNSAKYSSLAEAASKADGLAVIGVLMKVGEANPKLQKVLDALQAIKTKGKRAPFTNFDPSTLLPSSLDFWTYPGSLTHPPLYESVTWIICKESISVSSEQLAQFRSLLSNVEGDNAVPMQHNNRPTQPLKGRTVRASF
We begin with a simple list: items and their reported Ki.
Express it in nM; write the number only.

CCN(C)C(=S)SNc1ccc(S(N)(=O)=O)cc1 :: 15000
NS(=O)(=O)c1ccc(NS(=O)(=O)c2ccc(NSC(=S)N3CCOCC3)cc2)cc1 :: 30
Cn1nc(S(N)(=O)=O)s/c1=N/SC(=S)N1CCOCC1 :: 200
NS(=O)(=O)c1ccc(NSC(=S)N2CCOCC2)cc1 :: 9000

# context switch: different compound, same Ki
For the record "NS(=O)(=O)c1nnc(NSC(=S)N2CCOCC2)s1" , what value of Ki is listed for Carbonic anhydrase 1 (Homo sapiens, UniProt P00915)?
240

====

Reported pKi values, Carbonic anhydrase 2 (Homo sapiens, UniProt P00918).
Friendly reminder that pKi comes from taking -log10 of the concentration in mol/L.

NS(=O)(=O)c1ccc(CNSC(=S)N2CCOCC2)cc1 :: 8.00
NS(=O)(=O)c1ccc(CCNSC(=S)N2CCOCC2)cc1 :: 8.10
NS(=O)(=O)c1cc(S(N)(=O)=O)c(NSC(=S)N2CCOCC2)cc1Cl :: 7.82
NS(=O)(=O)c1nnc(NSC(=S)N2CCOCC2)s1 :: 8.22
Cn1nc(S(N)(=O)=O)s/c1=N/SC(=S)N1CCOCC1 :: 8.22

Request the reported pKi associated with CCN(SC(=S)N1CCOCC1)C1CC(C)S(=O)(=O)c2sc(S(N)(=O)=O)cc21 (configuration not stated)
8.22

Looking for the measured pKi of "CCN(C)C(=S)SNCc1ccc(S(N)(=O)=O)cc1" , can you help?
7.89

====

// reported pKi for each item listed
- Tested system: UniProtKB Q95323
Kindly note that pKi refers to -log10 of the concentration in mol/L and answer with the value alone.

See these solved cases before continuing.
Cn1nc(S(N)(=O)=O)s/c1=N/S(=O)(=O)c1ccc(NSC(=S)N2CCOCC2)cc1 :: 8.89
NS(=O)(=O)c1nnc(NSC(=S)N2CCOCC2)s1 :: 7.60
NS(=O)(=O)c1ccccc1NSC(=S)N1CCOCC1 :: 6.30
NS(=O)(=O)c1nnc(NS(=O)(=O)c2ccc(NSC(=S)N3CCOCC3)cc2)s1 :: 8.40

Now for the compound whose pKi we want.
Provide value of pKi for this record tested with UniProtKB Q95323: "CCN(C)C(=S)SNc1ccc(S(N)(=O)=O)cc1"
6.85
